# Tested on: KB
# ASSAY COMMENT: Cytotoxicity against human KB cells after 48 hrs by MTT assay
# Format: functional, cell-based
# IC50 per record follows
Respond numerically; units are µM and should not be typed.

CCn1c2ccccc2c2cc(C(=O)OCCCCCCOC(=O)c3cc4c5ccccc5n(CC)c4c(-c4cc(OC)c(OC)c(OC)c4)n3)nc(-c3cc(OC)c(OC)c(OC)c3)c21    20.7
Cc1nc(C(=O)OCCCCCCOC(=O)c2cc3c4ccccc4n(Cc4ccccc4)c3c(C)n2)cc2c3ccccc3n(Cc3ccccc3)c12    112
O=C(OCCCCCCCCOC(=O)c1cc2c3ccccc3n(Cc3ccccc3)c2cn1)c1cc2c3ccccc3n(Cc3ccccc3)c2cn1    162

**Query** Supply recorded IC50 for CCn1c2ccccc2c2cc(C(=O)OCCCCCCOC(=O)c3cc4c5ccccc5n(CC)c4c(-c4ccc(OC)cc4)n3)nc(-c3ccc(OC)cc3)c21 here.
**Result** 89.2

**Query** Supply recorded IC50 for CCCCn1c2ccccc2c2cc(C(=O)OCCCCCCCCCOC(=O)c3cc4c5ccccc5n(CCCC)c4cn3)ncc21 here.
**Result** 26.4

**Query** Supply recorded IC50 for CCn1c2ccccc2c2cc(C(=O)OCCCCCCOC(=O)c3cc4c5ccccc5n(CC)c4c(C)n3)nc(C)c21 here.
**Result** 16.5

**Query** Supply recorded IC50 for CCCCn1c2ccccc2c2cc(C(=O)OCCCCCCOC(=O)c3cc4c5ccccc5n(CCCC)c4c(C)n3)nc(C)c21 here.
**Result** 54.6

**Query** Supply recorded IC50 for O=C(O)c1cc2c3ccccc3n(CCCc3ccccc3)c2cn1 here.
**Result** 86.4

**Query** Supply recorded IC50 for O=C(OCCCOC(=O)c1cc2c3ccccc3n(CCCc3ccccc3)c2cn1)c1cc2c3ccccc3n(CCCc3ccccc3)c2cn1 here.
**Result** 72.4

**Query** Supply recorded IC50 for CCCCn1c2ccccc2c2cc(C(=O)OCCCCCOC(=O)c3cc4c5ccccc5n(CCCC)c4cn3)ncc21 here.
**Result** 53.9

**Query** Supply recorded IC50 for CCn1c2ccccc2c2cc(C(=O)OCCCCCCCCCOC(=O)c3cc4c5ccccc5n(CC)c4c(C)n3)nc(C)c21 here.
**Result** 56.9

###

# IC50 per record follows
# System: KB
# ASSAY COMMENT: Cytotoxicity against human KB cells after 48 hrs by MTT assay
# Format: functional, cell-based
Respond numerically; units are µM and should not be typed.

Would you please look over these solved cases?
O=C(OCCCCCCOC(=O)c1cc2c3ccccc3n(Cc3cccc(Cl)c3)c2cn1)c1cc2c3ccccc3n(Cc3cccc(Cl)c3)c2cn1    46.9
CCCCn1c2ccccc2c2cc(C(=O)OCCCCCCCCCCOC(=O)c3cc4c5ccccc5n(CCCC)c4cn3)ncc21    45.2
CCCCn1c2ccccc2c2cc(C(=O)OCCCCCCCCOC(=O)c3cc4c5ccccc5n(CCCC)c4cn3)ncc21    19.8

**Query** Supply recorded IC50 for Cc1nc(C(=O)OCCCOC(=O)c2cc3c4ccccc4n(C)c3c(C)n2)cc2c3ccccc3n(C)c12 here.
**Result** 18.4

**Query** Supply recorded IC50 for O=C(OCCCCCCOC(=O)c1cc2c3ccccc3n(CCCc3ccccc3)c2cn1)c1cc2c3ccccc3n(CCCc3ccccc3)c2cn1 here.
**Result** 56.4

**Query** Supply recorded IC50 for CCCCn1c2ccccc2c2cc(C(=O)O)ncc21 here.
**Result** 67.7
